- Organism: Capra hircus
- assay_explanation: Inhibition of goat liver acid phosphatase assessed as residual activity using p-nitrophenyl phosphate as substrate at 1 mM after 30 mins relative to control
Reported Activity values follow for various compounds
Quick reminder: number only, in %, skip the unit.

Worked set:
# smiles_text, Activity (%)
measured = [
    ("O=C1/C(=C/c2ccccc2)CCC/C1=C\\c1ccccc1", 121),
    ("COc1ccc(/C=C2\\CCC/C(=C\\c3ccc(OC)cc3)C2=O)cc1", 158),
    ("O=C1/C(=C/c2ccc(Br)cc2)CCC/C1=C\\c1ccc(Br)cc1", 127),
    ("O=C1/C(=C/c2ccc([N+](=O)[O-])cc2)CCC/C1=C\\c1ccc([N+](=O)[O-])cc1", 133),
    ("O=C1/C(=C/c2ccc(F)cc2)CCC/C1=C\\c1ccc(F)cc1", 140),
]

[ask] So what does the record say about Activity for `CN(C)c1ccc(/C=C2\CCC/C(=C\c3ccc(N(C)C)cc3)C2=O)cc1` ?
[reply] 113

[ask] Do the same for `O=C1/C(=C/c2ccc(Cl)cc2)CCC/C1=C\c1ccc(Cl)cc1` please
[reply] 129

[ask] Now try `O=C1/C(=C/C=C/c2ccccc2)CCC/C1=C\C=C\c1ccccc1` .
[reply] 129

[ask] Likewise for `Cc1ccc(/C=C2\CCC/C(=C\c3ccc(C)cc3)C2=O)cc1` ?
[reply] 149
